Items are presented alongside their recorded GI50.
# Test system: PC-3 prostate
# procedure summary: NCI tumour cell line growth inhibition, 48 h

{"columns": ["compound", "result"],
 "data": [
  ["OCc1ccc(-c2cscc2-c2ccc(CO)o2)o1", "> 75 µM"]
]}

stdin: What value of GI50 has been reported for the following compound? COc1ccc(C(=O)NNc2nc(Cl)nc(N3CCN(C(c4ccccc4)c4ccccc4)CC3)n2)cc1
stdout: 1.74 µM

stdin: # input compound: C1=C2CCCC3=Cc4ccccc4OC23Oc2ccccc21 ; wanted: its GI50
stdout: 4 µM

stdin: GET /values?readout=GI50&item= Cc1cc(O)c(C2=NN(c3ccc(S(N)(=O)=O)cc3)C(c3ccc(Cl)cc3)C2)c(C)c1Cl (centres undefined)
stdout: 4.44 µM

stdin: If you can, please state the reported GI50 value of C#Cc1nc2ccccc2c(=O)[nH]1 .
stdout: 0.674 µM

stdin: Bench note: what GI50 did Cc1nc2ccc(NC(=O)CCNC(=O)CCCc3ccc(CC(C(=O)O)C(=O)O)cc3)cc2s1 show?
stdout: > 100 µM

stdin: I would be grateful if you could share the reported GI50 for C=CC(=O)Nc1cc(N2CCN(CC)CC2)ccc1Nc1cc(N(C)C(=O)Nc2c(Cl)c(OC)cc(OC)c2Cl)ncn1 .
stdout: 5.05 µM

stdin: What value of measured GI50 is listed for COc1ccc(C(O)c2cc3c(N)c(C(=O)Nc4cccc(Cl)c4)sc3nc2C)cc1 (centres undefined) ?
stdout: 1.56 µM

stdin: Find the recorded GI50 belonging to CCN(c1cc(-c2ccc(CN3CCOCC3)cc2)cc(C(=O)NCc2c(C)cc(C)[nH]c2=O)c1C)C1CCOCC1 and report it.
stdout: 32 µM

* * *

# System: SK-MEL-5 melanoma
# procedure summary: NCI tumour cell line growth inhibition, 48 h
recorded metric: TGI

{"columns": ["molecule", "target entity", "result"],
 "data": [
  ["CN1C(=O)C(O)C[C@@H]1c1ccccc1 (stereo partly specified)", "SK-MEL-5 melanoma", "> 100 µM"]
]}

stdin: # query: TGI of entry c1ccc2c(c1)oc1ccc3nsnc3c12
stdout: > 100 µM

stdin: Please give the measured TGI for this molecule: COc1ccc2[nH]c(O)c(/C=c3/cc4c(c(-c5ccc(F)c(OC)c5)n3)=Nc3ccccc3-4)c2c1
stdout: 22 µM

stdin: Can you look up the measured TGI of O=C(N/N=C/C=C/c1ccccc1)c1ccccc1Nc1ccccc1C(=O)N/N=C/C=C/c1ccccc1 for me?
stdout: > 100 µM

* * *

# System: MDA-MB-435
# procedure summary: NCI tumour cell line growth inhibition, 48 h
Classify by measured TGI: satisfied if it is equal to or exceeds 30 µM, not satisfied if it is smaller.

Worked cases, answers included:
{"columns": ["compound", "qualitative label"],
 "data": [
  ["CN1CC2=C(NC(=S)NC2c2ccccc2)/C(=C/c2ccccc2)C1 (stereo not given)", "satisfied"],
  ["O=c1c(-c2ccccc2)c(SCCO)n(-c2ccccc2)c(=S)n1-c1ccccc1", "satisfied"],
  ["Nc1ccc(S(=O)(=O)Nc2nc3ccccc3nc2N2CCCCCC2)cc1", "satisfied"],
  ["CC1=Nc2ccccc2/C1=C\\c1c(C)[nH]c2ccccc12", "not satisfied"],
  ["COc1ccc(C(SC2C(O)C(CO)OC2n2ccc(=O)[nH]c2=O)(c2ccccc2)c2ccc(OC)cc2)cc1 (stereo not given)", "not satisfied"],
  ["NCC(O)CSCc1ccc(Cl)cc1 (stereo not given)", "satisfied"],
  ["Cc1nc2c(n1C)C(=O)c1ccccc1C2=O", "satisfied"],
  ["COC(=O)COc1ccc(/C=C2/N=C(c3ccccc3)N(c3c(C)n(C)n(-c4ccccc4)c3=O)C2=O)cc1", "satisfied"]
]}

In the following, a different compound is considered.
stdin: Is TGI at least 30 µM? Consider O=C1NC(=O)C(C(CC(=O)c2ccc(Cl)cc2)c2ccc(Cl)cc2)C(=O)N1 (stereo not given)
stdout: satisfied
